Sourced from PubChem BioAssay (EPA / NIEHS)

- procedure_text: APR_HepG2_MicrotubuleCSK_24hr: Apredica 24-hour HepG2 Assay for Microtubule CSK Stabilty (AID 2282909)
- condition_label: HepG2 microtubule cytoskeleton imaging, actives raise or lower the signal
Active and inactive are the calls of the source. How the source made its calls: active means hit-call score of the fitted dose curve at least 0.9, where 1 is the maximum; inactive means score below 0.9.

molecule	AC50
Brc1ccc(Oc2ccccc2)cc1	inactive
ClC1=C(Cl)C2(Cl)C3C(Cl)C=CC3C1(Cl)C2(Cl)Cl (stereo not given)	68.7 µM (active)
c1ccc(N=Nc2ccccc2)cc1	inactive
O=C(Oc1ccc(Br)cc1)N1CCN2CCC1CC2	inactive
CC(C)(C)C(O)(CCc1ccc(Cl)cc1)Cn1cncn1 (stereo not given)	115 µM (active)
OCCCl	inactive
Nc1ccc(Cl)cc1N	inactive
CCC(C)c1ccc(O)cc1 (stereo not given)	inactive
CCCCCCCCn1sccc1=O	79.4 µM (active)
[O-][Cl+]O	73.3 µM (active)
CNC(=O)Oc1cccc2c1OC(C)(C)C2	inactive
CN(C)[C@@H]1C(=O)C(C(N)=O)=C(O)[C@@]2(O)C(=O)C3=C(O)c4c(O)cccc4[C@@](C)(O)[C@H]3C[C@@H]12	inactive
O=C1CCCO1	inactive
CN(C)c1ccc(C(=O)c2ccc(N(C)C)cc2)cc1	0.403 µM (active)
Cn1cc(-c2ccccc2)c(=O)c(-c2cccc(C(F)(F)F)c2)c1	inactive
CN(C)c1ccccc1	inactive
Cc1ccc(N)cc1	inactive
COc1cc(C=O)cc2c1[C@H](COC(N)=O)[C@]1(OC(C)=O)ON2C[C@H]2[C@@H]1N2C(C)=O	inactive
OCCCBr	inactive
Clc1ccc(C(c2ccc(Cl)cc2)C(Cl)Cl)cc1	156 µM (active)
Clc1ccc(C(c2ccc(Cl)cc2)C(Cl)(Cl)Cl)cc1	inactive
Cc1ccc(N)c(N)c1	inactive
OCCOCCO	inactive
Nc1ccc([N+](=O)[O-])cc1	inactive
CCCCCOC(=O)c1ccccc1C(=O)OCCCCC	inactive
O=C(Nc1ccccc1)c1ccccc1I	inactive
CN(C)C(=O)Nc1ccc(Cl)cc1	inactive
N#CC(Br)Br	169 µM (active)
c1ccc2c(c1)-c1cccc3cccc-2c13	inactive
Clc1ccccc1Cl	inactive
CC(C)(OOC(C)(C)c1ccccc1)c1ccccc1	77.2 µM (active)
CS(=O)(=O)NC(=O)c1cc(Oc2ccc(C(F)(F)F)cc2Cl)ccc1[N+](=O)[O-]	inactive
c1ccc(NNc2ccccc2)cc1	inactive
O=C(O)C1C2CCC(O2)C1C(=O)O (stereo not given)	inactive
C[N+](C)(C)CC1CO1 (stereo not given)	inactive
